I'd be grateful if you could share measured IC50 for these entries.
Biological target: hCES1A (Homo sapiens, UniProt P23141)
Construct: tissue Bioreclamation IVT lot no; X008067; host or cells: pooled human liver microsomes (50 donors)
Sequence (P23141 18-567): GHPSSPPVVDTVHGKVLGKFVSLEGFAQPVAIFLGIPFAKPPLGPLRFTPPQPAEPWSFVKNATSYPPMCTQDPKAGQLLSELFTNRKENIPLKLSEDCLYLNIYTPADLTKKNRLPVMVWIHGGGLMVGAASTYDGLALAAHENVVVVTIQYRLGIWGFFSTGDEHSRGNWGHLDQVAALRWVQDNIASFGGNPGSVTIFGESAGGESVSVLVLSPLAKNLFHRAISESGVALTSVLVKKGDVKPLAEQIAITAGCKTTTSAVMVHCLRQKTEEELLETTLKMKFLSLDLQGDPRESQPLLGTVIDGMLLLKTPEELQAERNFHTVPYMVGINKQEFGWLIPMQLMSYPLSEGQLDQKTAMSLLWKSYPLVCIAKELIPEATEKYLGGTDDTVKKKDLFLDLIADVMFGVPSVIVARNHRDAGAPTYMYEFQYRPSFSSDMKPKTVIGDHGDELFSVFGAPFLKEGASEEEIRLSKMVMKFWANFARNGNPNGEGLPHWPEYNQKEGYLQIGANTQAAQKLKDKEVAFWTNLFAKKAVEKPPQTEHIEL
Assay: hCES1A inhibition assay (DME hydrolysis in HLM);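 further: Read-out is D-luciferin luminescence formed from DME (3 µM) after 10 min at 37 °C in pH 6.5 PBS, HLM 1 µg/mL, inhibitor preincubated 3 min, oleanic acid as positive control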
Type: biochemical
Conditions: HLM as enzyme source, DME hydrolysis as probe reaction; read-out: IC50 (μM) hCES1A

GET /values?readout=IC50&item= CC(C)=CCC[C@](C)(O[C@@H]1O[C@H](CO)[C@@H](O)[C@H](O)[C@H]1O)[C@H]1CC[C@]2(C)[C@@H]1[C@H](O)C[C@@H]1[C@@]3(C)CC[C@H](O)C(C)(C)[C@@H]3[C@@H](O[C@@H]3O[C@H](CO)[C@@H](O)[C@H](O)[C@H]3O[C@@H]3O[C@@H](C)[C@H](O)[C@@H](O)[C@H]3O)C[C@]12C [Re, ginsenoside Re] > 100 µM

Here is the next compound: CC1(C)CCC2(C(=O)OC3OC(CO)C(O)C(O)C3O)CCC3(C)C(=CCC4C5(C)CCC(OC6OC(C(=O)O)C(O)C(O)C6OC6OC(CO)C(O)C(O)C6O)C(C)(C)C5CCC43C)C2C1 (stereo not drawn) > 100 µM

Could you do the same for `CC(C)=CCC[C@](C)(O)[C@H]1CC[C@]2(C)[C@@H]1[C@H](O)C[C@@H]1[C@@]3(C)CC[C@H](O)C(C)(C)[C@@H]3[C@@H](O)C[C@]12C` , please? > 100 µM
